# experimental-target: EGFR L858R/T790M/C797S (BaF3-LTC cells) (Homo sapiens, UniProt P00533, C797S/L858R/T790M)
# Construct: expressed in transfected cells; host or cells: BaF3
# Sequence (P00533 25-1210 T790M/C797S/L858R): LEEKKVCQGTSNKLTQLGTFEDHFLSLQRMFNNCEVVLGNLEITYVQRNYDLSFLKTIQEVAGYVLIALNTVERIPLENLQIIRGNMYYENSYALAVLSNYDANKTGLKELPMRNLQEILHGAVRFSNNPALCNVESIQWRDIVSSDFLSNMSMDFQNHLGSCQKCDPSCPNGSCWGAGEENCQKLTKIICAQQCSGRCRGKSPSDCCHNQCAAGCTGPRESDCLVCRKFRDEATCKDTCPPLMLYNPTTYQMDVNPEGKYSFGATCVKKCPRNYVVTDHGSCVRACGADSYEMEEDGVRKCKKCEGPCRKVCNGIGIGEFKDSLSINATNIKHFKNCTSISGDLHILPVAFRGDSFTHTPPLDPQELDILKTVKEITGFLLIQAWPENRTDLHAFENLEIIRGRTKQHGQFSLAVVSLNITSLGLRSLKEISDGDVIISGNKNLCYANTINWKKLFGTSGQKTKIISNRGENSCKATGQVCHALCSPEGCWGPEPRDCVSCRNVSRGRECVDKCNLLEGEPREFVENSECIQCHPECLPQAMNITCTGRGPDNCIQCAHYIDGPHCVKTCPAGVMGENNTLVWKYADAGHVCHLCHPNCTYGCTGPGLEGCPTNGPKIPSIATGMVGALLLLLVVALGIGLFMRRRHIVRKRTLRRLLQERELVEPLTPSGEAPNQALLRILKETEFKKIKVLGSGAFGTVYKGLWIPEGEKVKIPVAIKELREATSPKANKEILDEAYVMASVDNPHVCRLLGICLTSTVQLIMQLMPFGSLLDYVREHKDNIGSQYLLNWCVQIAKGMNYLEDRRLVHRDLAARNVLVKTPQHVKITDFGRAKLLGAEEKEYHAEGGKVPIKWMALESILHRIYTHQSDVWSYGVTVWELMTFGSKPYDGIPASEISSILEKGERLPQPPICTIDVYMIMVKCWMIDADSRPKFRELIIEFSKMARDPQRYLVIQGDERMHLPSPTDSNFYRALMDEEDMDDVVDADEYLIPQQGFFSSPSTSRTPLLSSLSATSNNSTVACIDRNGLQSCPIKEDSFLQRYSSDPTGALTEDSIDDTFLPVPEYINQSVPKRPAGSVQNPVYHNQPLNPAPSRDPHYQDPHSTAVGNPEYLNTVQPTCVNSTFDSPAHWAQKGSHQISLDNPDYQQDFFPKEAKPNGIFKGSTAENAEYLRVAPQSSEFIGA
# protocol-text: EGFR degradation HTRF assay, BaF3-LTC cells
# Format: cell-based
# assay-conditions: BaF3-LTC, 16h treatment, maximum percentage of degradation; read-out: LTC Dmax (%)
observed-property: Dmax (%)

What does the data say about its Dmax? Entry: CCc1cc(Nc2ncc(Br)c(Nc3ccc4nc(C)ccc4c3P(C)(C)=O)n2)c(OC)cc1N1CCC(N2CCN(CC3CCN(c4cc(F)c(NC5CCC(=O)NC5=O)c(F)c4)CC3)CC2)CC1 (stereo not shown)
89.6

Follow-up item: CCc1cc(Nc2ncc(Br)c(Nc3ccc4nccnc4c3P(C)(C)=O)n2)c(OC)cc1N1CCC(N2CCN(CCc3ccc(C4CCC(=O)NC4=O)c(F)c3)C[C@H]2COC)CC1 (stereo partly shown)
84.1

Follow-up item: CCc1cc(Nc2ncc(Br)c(Nc3ccc4nccnc4c3P(C)(C)=O)n2)c(OC)cc1N1CCC(N2CCN(C(=O)C3CN(c4ccc(C5CCC(=O)NC5=O)cc4)C3)CC2)CC1 (stereo not shown)
86.6

Follow-up item: CCc1cc(Nc2ncc(Br)c(Nc3ccc4nccnc4c3P(C)(C)=O)n2)c(OC)cc1N1CCC(N2CCN(CCc3ccc(C4CCC(=O)NC4=O)c(F)c3)[C@@H](COC)C2)CC1 (stereo partly shown)
85.3

Follow-up item: CCc1cc(Nc2ncc(Br)c(Nc3ccc4nccnc4c3P(C)(C)=O)n2)c(OC)cc1N1CCC(N2CCN(CCc3ccc(C4CCC(=O)NC4=O)cc3)CC2)CC1 (stereo not shown)
89.3

Follow-up item: CCc1cc(Nc2ncc(Br)c(Nc3ccc4nccnc4c3P(C)(C)=O)n2)c(OC)cc1N1CCC(N2CCN(C(=O)C3CCN(c4ccc5nn(C6CCC(=O)NC6=O)cc5c4)CC3)CC2)CC1 (stereo not shown)
91.8

Follow-up item: CCc1cc(Nc2ncc(Br)c(Nc3ccc4nccnc4c3P(C)(C)=O)n2)c(OC)cc1N1CCC(N2CCN(CCc3cc(F)c(C4CCC(=O)NC4=O)cc3F)CC2)CC1 (stereo not shown)
80.6

Follow-up item: CCc1cc(Nc2ncc(Br)c(Nc3ccc4nc(C)ccc4c3P(C)(C)=O)n2)c(OC)cc1N1CCC(N2C[C@H](C)N(CCc3cc(F)c(C4CCC(=O)NC4=O)c(F)c3)C[C@H]2C)CC1 (stereo partly shown)
90

Follow-up item: CCc1cc(Nc2ncc(Br)c(Nc3ccc4nccnc4c3P(C)(C)=O)n2)c(OC)cc1N1CCC(N2CCN(CC3CCN(c4ccc(C5CCC(=O)NC5=O)cc4)C3)CC2)CC1 (stereo not shown)
86.4

Follow-up item: CCc1cc(Nc2ncc(Br)c(Nc3ccc4nc(C)ccc4c3P(C)(C)=O)n2)c(OC)cc1N1CCC(N2CCN(CCC3CCN(c4ccc5nn(C6CCC(=O)NC6=O)cc5c4)CC3)CC2)CC1 (stereo not shown)
90.4

* * *

# experimental-target: EGFR L858R/T790M/C797S (BaF3-LTC cells) (Homo sapiens, UniProt P00533, C797S/L858R/T790M)
# Construct: expressed in transfected cells; host or cells: BaF3
# protocol-text: EGFR degradation HTRF assay, BaF3-LTC cells
# Assay type: cell-based
# assay-conditions: read-out: Dmax (%) BaF3-LTC, BaF3-LTC cells; maximum percentage of inhibition (degradation)
observed-property: Dmax (%)
Hi! Could you send only the number? It should be in %, unit omitted.

What does the data say about its Dmax? Entry: CCOc1cc(N2CCC(N3CCN(C(=O)[C@@H]4CCN(c5cccc6c5oc(=O)n6C5CCC(=O)NC5=O)C4)CC3)CC2)c(CC)cc1Nc1ncc(Br)c(Nc2ccc3nc(CC)ccc3c2P(C)(C)=O)n1 (stereo partly drawn)
87.7

New cases:
What does the data say about its Dmax? Entry: CCc1ncc2c(P(C)(C)=O)c(Nc3nc(Nc4cc(CC)c(N5CCC(N6CCN(C(=O)Cc7ccc8c(c7)oc(=O)n8C7CCC(=O)NC7=O)CC6)CC5)cc4OC)ncc3Br)ccc2n1 (stereo not drawn)
94.5

Follow-up item: CCOc1cc(N2CCC(N3CCN(C(=O)C4CCN(c5cccc6c5oc(=O)n6C5CCC(=O)NC5=O)CC4)CC3)CC2)c(CC)cc1Nc1ncc(Br)c(Nc2ccc3nc(CC)ccc3c2P(C)(C)=O)n1 (stereo not drawn)
86.5
